# reported Emax; entries follow
Biological target: RARα (Homo sapiens, UniProt P10276)
Sequence (P10276 whole entry): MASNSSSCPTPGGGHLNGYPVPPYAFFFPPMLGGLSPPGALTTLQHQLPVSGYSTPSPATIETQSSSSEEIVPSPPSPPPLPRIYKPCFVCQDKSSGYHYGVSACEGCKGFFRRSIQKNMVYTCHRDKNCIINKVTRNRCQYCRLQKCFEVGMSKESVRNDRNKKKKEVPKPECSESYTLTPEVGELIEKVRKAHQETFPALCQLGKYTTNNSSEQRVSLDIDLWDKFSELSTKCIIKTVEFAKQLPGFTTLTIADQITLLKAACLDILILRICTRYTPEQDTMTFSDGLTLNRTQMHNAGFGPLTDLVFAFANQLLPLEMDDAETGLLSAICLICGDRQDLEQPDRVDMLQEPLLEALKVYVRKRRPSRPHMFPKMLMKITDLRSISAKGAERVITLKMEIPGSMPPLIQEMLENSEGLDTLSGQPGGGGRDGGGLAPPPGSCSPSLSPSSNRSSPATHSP
Assay: Holoreceptor transactivation assay
Type: cell-based
Design: expressed in transfected cells; host or cells: CV1 cells
Settings: relative to all trans retinoic acid; read-out: Transactivation Assay Efficacy (% of RA activity) RARα
Supply the numeric figure in %, leaving out any unit text.

As a guide, the following entries are already answered.
smiles string: Cc1cc(C)cc(C2=CCC(C)(C)c3ccc(C#Cc4ccc(C(=O)O)cc4)cc32)c1
target or system: RARα (Homo sapiens, UniProt P10276)
Emax (%): 3
--
smiles string: Cc1cccc(C2=CCC(C)(C)c3ccc(C#Cc4ccc(C(=O)O)cc4)cc32)c1
target or system: RARα (Homo sapiens, UniProt P10276)
Emax (%): 3
--
smiles string: CC1(C)CC=C(c2ccc(C(F)(F)F)cc2)c2cc(C#Cc3ccc(C(=O)O)cc3)ccc21
target or system: RARα (Homo sapiens, UniProt P10276)
Emax (%): 0
--
smiles string: Cc1ccc(C2=CCC(C)(C)c3ccc(C(=S)Nc4ccc(C(=O)O)c(F)c4)cc32)cc1
target or system: RARα (Homo sapiens, UniProt P10276)
Emax (%): 2
--
smiles string: Cc1ccc(C2=CCC(C)(C)c3ccc(C(=O)Nc4ccc(C(=O)O)cc4)cc32)cc1
target or system: RARα (Homo sapiens, UniProt P10276)
Emax (%): 1

Here's the next entry for you.
IN: Specify Emax for `CC(/C=C/C=C(\C)c1ccc2c(c1)C(c1ccc(C)cc1)=CCC2(C)C)=C\C(=O)O` and stop.
OUT: 0
